# protocol.details: Lipophilicity determination by RP-HPLC (capacity factor, log k)
# Type: physicochemical
# assay.conditions: end-capped C18, isocratic MeOH 60%/H2O 40%
metric.name: log k
Answer as a number with no unit attached.

>>> print(df.to_string())
                                  structure  metric_name  observed_measurement
0          COc1cccc(NC(=O)c2cccc3ccccc23)c1        log k                0.6087
1  O=C(Nc1ccccc1[N+](=O)[O-])c1cccc2ccccc12        log k                0.9090
2  O=C(Nc1ccc([N+](=O)[O-])cc1)c1cccc2ccccc12        log k                0.7328

// query Can you look up the measured log k of Cc1ccc(NC(=O)c2cccc3ccccc23)cc1 for me?
// result 0.7551

// query Can you look up the measured log k of COc1ccc(NC(=O)c2cccc3ccccc23)cc1 for me?
// result 0.4953

// query Can you look up the measured log k of Cc1ccccc1NC(=O)c1cccc2ccccc12 for me?
// result 0.5309

// query Can you look up the measured log k of O=C(Nc1ccccc1Br)c1cccc2ccccc12 for me?
// result 0.8892

// query Can you look up the measured log k of O=C(Nc1ccc(Cl)cc1)c1cccc2ccccc12 for me?
// result 0.9223

// query Can you look up the measured log k of O=C(Nc1cccc(C(F)(F)F)c1)c1cccc2ccccc12 for me?
// result 1.0862

----------
# protocol.details: Lipophilicity determination by RP-HPLC (capacity factor, log k)
# Type: physicochemical
# assay.conditions: end-capped C18, isocratic MeOH 60%/H2O 40%
Decision: log k compared against 0.7; not below it gives 1, below it gives 0.

                                   compound  label
0  COc1ccccc1NC(=O)c1cccc2ccccc12 [Compound 2a]      1

// query Evaluate O=C(Nc1ccccc1C(F)(F)F)c1cccc2ccccc12 [Compound 7a] : log k at minimum 0.7?
// result 1

// query Evaluate O=C(Nc1ccccc1)c1cccc2ccccc12 [Compound 1, N-Phenylnaphthalene-1-carboxamide] : log k at minimum 0.7?
// result 0

// query Evaluate O=C(Nc1ccc(F)cc1)c1cccc2ccccc12 [Compound 4c] : log k at minimum 0.7?
// result 0

// query Evaluate O=C(Nc1cccc(Br)c1)c1cccc2ccccc12 [Compound 6b] : log k at minimum 0.7?
// result 1

// query Evaluate O=C(Nc1cccc(Cl)c1)c1cccc2ccccc12 [Compound 5b] : log k at minimum 0.7?
// result 1

// query Evaluate O=C(Nc1ccccc1F)c1cccc2ccccc12 [Compound 4a] : log k at minimum 0.7?
// result 0

// query Evaluate O=C(Nc1ccc(Br)cc1)c1cccc2ccccc12 [Compound 6c] : log k at minimum 0.7?
// result 1

// query Evaluate O=C(Nc1ccc(C(F)(F)F)cc1)c1cccc2ccccc12 [Compound 7c] : log k at minimum 0.7?
// result 1

----------
Recorded measurements of log k, one per entry
# protocol.details: Lipophilicity determination by RP-HPLC (capacity factor, log k)
# Format: physicochemical
# assay.conditions: end-capped C18, isocratic MeOH 60%/H2O 40%
Answer as a number with no unit attached.

>>> print(df.to_string())
                         structure  metric_name  observed_measurement
0   O=C(Nc1ccccc1Cl)c1cccc2ccccc12        log k                0.8322
1  Cc1cccc(NC(=O)c2cccc3ccccc23)c1        log k                0.7624

// query Can you look up the measured log k of O=C(Nc1cccc([N+](=O)[O-])c1)c1cccc2ccccc12 for me?
// result 0.8155
